# credit: PubChem BioAssay (EPA / NIEHS)

system: AR (gene 367) (UniProt P10275)
Sequence (P10275 whole entry, looked up): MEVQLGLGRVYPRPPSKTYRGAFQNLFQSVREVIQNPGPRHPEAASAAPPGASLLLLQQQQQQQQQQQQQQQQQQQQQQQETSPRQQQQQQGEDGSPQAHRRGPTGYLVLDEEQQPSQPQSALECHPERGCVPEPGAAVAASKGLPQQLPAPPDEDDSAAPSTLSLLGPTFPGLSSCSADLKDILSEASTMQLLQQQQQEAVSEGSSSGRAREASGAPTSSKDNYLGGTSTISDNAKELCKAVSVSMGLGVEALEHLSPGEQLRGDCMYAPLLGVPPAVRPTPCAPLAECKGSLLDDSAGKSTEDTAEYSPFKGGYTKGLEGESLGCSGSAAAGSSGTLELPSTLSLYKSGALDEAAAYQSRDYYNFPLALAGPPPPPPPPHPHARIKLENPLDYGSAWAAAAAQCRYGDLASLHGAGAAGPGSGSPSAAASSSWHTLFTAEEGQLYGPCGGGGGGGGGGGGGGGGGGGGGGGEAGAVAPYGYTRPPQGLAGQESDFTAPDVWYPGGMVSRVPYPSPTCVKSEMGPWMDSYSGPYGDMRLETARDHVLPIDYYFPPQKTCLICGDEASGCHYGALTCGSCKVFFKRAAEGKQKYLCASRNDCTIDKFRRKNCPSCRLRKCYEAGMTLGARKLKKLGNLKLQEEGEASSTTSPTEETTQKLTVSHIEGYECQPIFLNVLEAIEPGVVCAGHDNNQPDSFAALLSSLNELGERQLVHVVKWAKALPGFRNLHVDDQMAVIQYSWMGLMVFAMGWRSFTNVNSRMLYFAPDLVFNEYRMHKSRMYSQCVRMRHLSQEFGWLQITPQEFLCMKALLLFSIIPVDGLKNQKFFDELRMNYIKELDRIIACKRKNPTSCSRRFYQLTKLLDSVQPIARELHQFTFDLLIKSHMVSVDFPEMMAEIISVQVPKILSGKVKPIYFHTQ
run-description: ACEA_AR_antagonist_80hr: ACEA Biosciences xCELLigence Real-Time Cell Analysis on Androgen Receptor Antagonism for Proliferation (AID 2283787);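 note: 22Rv1 human prostate cancer cells with growth followed by electrical impedance; hits lower the impedance growth signal relative to DMSO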
Results filed as inconclusive are left out. Calls of active or inactive are those of the source. Rule for the calls: active = hit-call score of the fitted dose curve at least 0.9, where 1 is the maximum; inconclusive = response in the unintended direction; inactive = score below 0.9.
Write down one outcome, taken from active, inactive

Outcome? COc1cc(/C=C/C(=O)CC(=O)/C=C/c2ccc(O)c(OC)c2)ccc1O
active

Outcome? Cc1nc(-c2ccc3c(c2)CCN(CCC2CCC(NC(=O)/C=C/c4ccc(F)cc4)CC2)CC3)no1 (centres undefined)
active

Outcome? CN[C@H]1CC[C@@H](c2ccc(Cl)c(Cl)c2)c2ccc(S(N)(=O)=O)cc21
active

Outcome? CCCCCC(=O)O
inactive

Outcome? O=C(O)Cc1ccccc1Nc1c(Cl)cccc1Cl
active

Outcome? Cc1cccc(Nc2cc(Cl)nc(SCC(=O)O)n2)c1C
inactive

Outcome? COc1ccc(C)cc1N
inactive

Outcome? Cc1cccc([N+](=O)[O-])c1C
inactive

Outcome? CC(=O)Oc1ccccc1C(=O)O
inactive

Outcome? Cc1cc(NC(=O)C(=O)O)cc(C)c1Oc1ccc(O)c2c1CCC2
inactive

Outcome? CCOc1ccc2c(c1)C(C)=CC(C)(C)N2
active

Outcome? COc1ccc2c(c1)c(CC(=O)O)c(C)n2C(=O)c1ccc(Cl)cc1
active

Outcome? CCCCCCCCCCC
inactive

Outcome? COCCOC[C@H](CC1(C(=O)NC2CCC(C(=O)O)CC2)CCCC1)C(=O)Oc1ccc2c(c1)CCC2 (some centres undefined)
active
